These measurements were taken from ChEMBL document CHEMBL1145498.

target: Serine/threonine-protein kinase Chk2 (Homo sapiens, UniProt O96017)
Sequence (O96017 whole entry): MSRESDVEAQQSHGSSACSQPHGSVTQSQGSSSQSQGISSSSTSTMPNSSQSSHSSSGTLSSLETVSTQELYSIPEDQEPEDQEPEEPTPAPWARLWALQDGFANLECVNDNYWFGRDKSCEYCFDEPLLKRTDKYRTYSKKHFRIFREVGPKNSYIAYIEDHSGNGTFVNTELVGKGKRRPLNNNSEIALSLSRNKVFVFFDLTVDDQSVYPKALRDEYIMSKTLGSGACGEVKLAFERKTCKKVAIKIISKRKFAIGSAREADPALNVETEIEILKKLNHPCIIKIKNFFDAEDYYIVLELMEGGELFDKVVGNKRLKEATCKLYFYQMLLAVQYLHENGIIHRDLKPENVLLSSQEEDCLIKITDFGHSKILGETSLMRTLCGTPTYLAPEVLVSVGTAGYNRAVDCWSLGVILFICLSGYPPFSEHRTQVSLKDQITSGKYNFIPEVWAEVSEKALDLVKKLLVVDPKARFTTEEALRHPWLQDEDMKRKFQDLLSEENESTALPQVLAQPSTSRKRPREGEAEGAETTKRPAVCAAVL
Outcome label depends on ΔTm relative to 0.4 °C: at/above gives rule met, below gives rule not met.

Dear colleague, could you confirm whether O=C(O)c1cc(N(Cc2ccccc2O)Cc2cc(O)ccc2O)ccc1O has ΔTm at or above 0.4 °C?
rule met

One more compound: C/C(O)=C(\C#N)C(=O)Nc1cc(Br)ccc1Br
rule met

One more compound: CC(C)n1cnc2c(NCc3ccccc3O)nc(NCCCO)nc21
rule not met

One more compound: COc1ccc(COc2ccc(Cc3cnc(N)nc3N)cc2OC)cc1
rule not met

One more compound: O=C1Nc2ccccc2/C1=C1/Nc2ccccc2/C1=N\O
rule met

One more compound: COc1cccc(-c2cc(=O)c3ccccc3o2)c1N
rule not met

One more compound: CN(C)C[C@@H]1CCn2cc(c3ccccc32)C2=C(C(=O)NC2=O)c2cn(c3ccccc23)CCO1
rule met

One more compound: O=C1Nc2ccc(I)cc2/C1=C\c1cc(Br)c(O)c(Br)c1
rule not met

One more compound: C=CNC#N
rule not met

One more compound: COc1nccc(-c2c(-c3ccc(F)cc3)ncn2[C@H]2CC[C@H](O)CC2)n1
rule met

###

molecular target: cAMP-dependent protein kinase catalytic subunit alpha (Homo sapiens) (UniProt P17612)
ΔTm less than 0.6 °C is fulfilled; ΔTm greater than or equal to 0.6 °C is not fulfilled.

Please determine if Cn1cnc2c(NCc3ccccc3)nc(NCCO)nc21 [OLOMOUCINE] is below 0.6 °C in terms of ΔTm.
fulfilled

One more molecule: O=C1Nc2ccccc2/C1=C1/Nc2ccccc2/C1=N\O
not fulfilled

One more molecule: COc1ccc(CNC(=O)Nc2ncc([N+](=O)[O-])s2)cc1
not fulfilled

One more molecule: Oc1ccc(-c2nc(-c3ccc(F)cc3)c(-c3ccncc3)[nH]2)cc1
not fulfilled

One more molecule: O=c1c(-c2ccc(O)cc2)coc2cc(O)cc(O)c12
not fulfilled

One more molecule: O=C(O)c1cc(NCc2cc(O)ccc2O)ccc1O
fulfilled

One more molecule: C[S+]([O-])c1ccc(-c2nc(-c3ccc(F)cc3)c(-c3ccncc3)[nH]2)cc1 (stereo unspecified) [SB-203580]
fulfilled

One more molecule: C=CNC#N
not fulfilled

One more molecule: N#C/C(=C1/Nc2ccccc2S1)c1ccnc(NCCc2cccnc2)n1
not fulfilled

One more molecule: O=C1C(Cl)=C(N2C(=O)CCC2=O)C(=O)c2ccccc21
fulfilled

###

Can you tell me ΔTm for the items I'm about to list?
biological target: Serine/threonine-protein kinase 26 (Homo sapiens)
State the answer as a number, implicitly in °C.

If you can, please state the reported ΔTm value of N#C/C(=C(/N)Sc1ccc(N)cc1)c1ccccc1C(F)(F)F .
1.1

One more compound: Cc1cncc2cccc(S(=O)(=O)N3CCCNC[C@@H]3C)c12
1.5

One more compound: O=C(O)c1cc(N(Cc2ccccc2O)Cc2cc(O)ccc2O)ccc1O
2.1

One more compound: O=c1ccc2ccc(O)c(O)c2o1
-0.4

One more compound: Cc1ccc(NC2=CC(=O)c3sc(C)nc3C2=O)cc1
-0.5

One more compound: CCOc1cc2ncnc(Nc3cccc(Br)c3)c2cc1OCC
1.3

One more compound: O=C1c2ccccc2-[n+]2ccc3c([nH]c4ccccc43)c21 [FASCAPLYSIN CHLORIDE]
-0.8

One more compound: CSc1nc(-c2ccc(F)cc2)c(-c2ccnc(NC(C)c3ccccc3)c2)[nH]1 (racemic)
0.7

One more compound: CC(C)n1cnc2c(NCc3ccccc3)nc(NCCCO)nc21
-0.3

One more compound: O=C1NC(=O)C(c2c[nH]c3ccccc23)=C1c1c[nH]c2ccccc12
0.9
